- System: A3G-Luc/Vif
- EXPERIMENTAL DETAILS: A3G-Luc/Vif luciferase screen in 293T cells stably co-expressing A3G-Luc and HIV-1 Vif
- Type: cell-based, human
- PROTOCOL CONDITIONS: 10 μM, 48 hrs, DMSO = 100%
PROPERTY LABEL: Vif-A3G-Luc Activity (% of RLUs compared to DMSO treated control) (%)
Write the value in % as a bare number.

>>> measured_value("COCCOc1ccc(C(=O)Nc2ccc(Cl)c(Cl)c2)cc1NC(=O)CC1CC1 [NU-617]")
182
>>> measured_value("COc1ccc(C(=O)Nc2ccc(F)c(F)c2)cc1NC(=O)C(C)C [NU-571]")
104
>>> measured_value("COc1ccc(C(=O)Nc2ccc(Cl)c(Cl)c2)cc1NC(=O)C1CCCO1 (stereo not shown) [NU-464]")
170
>>> measured_value("COc1ccc(C(=O)Nc2ccc(Cl)c(Cl)c2)cc1NC(=O)C1C2CC3CC(C2)CC1C3 (stereo not shown) [NU-459]")
69
>>> measured_value("COc1ccc(C(=O)Nc2ccc(Cl)c(Cl)c2)cc1NC(=O)Cc1ccccc1 [NU-308]")
113

// query I am curious: what Vif-A3G-Luc Activity (% of RLUs compared to DMSO treated control) value has been reported for COc1ccc(C(=O)Nc2ccc(Cl)c(Cl)c2)cc1NC(=O)OC(C)C [NU-461] ?
// result 70

// query I am curious: what Vif-A3G-Luc Activity (% of RLUs compared to DMSO treated control) value has been reported for COc1ccc(C(=O)Nc2ccncc2)cc1NC(=O)C(C)C [NU-565] ?
// result 55

// query I am curious: what Vif-A3G-Luc Activity (% of RLUs compared to DMSO treated control) value has been reported for COc1ccc(C(=O)Nc2ccc(Cl)c(Cl)c2)cc1NC(=O)CC(C)(C)C [NU-474] ?
// result 71

// query I am curious: what Vif-A3G-Luc Activity (% of RLUs compared to DMSO treated control) value has been reported for CCCCOc1ccc(C(=O)Nc2ccc(Cl)c(Cl)c2)cc1NC(=O)CC1CC1 [NU-615] ?
// result 105

###

- System: A3G-Luc/Vif
- EXPERIMENTAL DETAILS: A3G-Luc/Vif luciferase screen in 293T cells stably co-expressing A3G-Luc and HIV-1 Vif
- Format: cell-based, human
- PROTOCOL CONDITIONS: 10 μM, 48 hrs, DMSO = 100%
- Protocol: FIG. 6. 293T cell clone #6 stably co-expressing A3G-Luciferase fusion protein together with HIV-1 Vif was used. […] To screen compounds that can boost A3G levels, 293T cells (25,000 cells per well in 96-well plate) stably expressing A3G-Luc protein or A3G-Luc/Vif proteins were plated. […] Following 5 min. of incubation at room temperature, 75 μl of each cell lysate was transferred to a 96-well OptiPlate 96 (PerkinElmer) and luminescence was measured in a VICTOR X2 Multilabel Reader (PerkinElmer). […]
PROPERTY LABEL: Vif-A3G-Luc Activity (% of RLUs compared to DMSO treated control) (%)
Write the value in % as a bare number.

>>> measured_value("COc1ccc(C(=O)Nc2ccc(Cl)c(Cl)c2)cc1NC(=O)C1CCC1")
167
>>> measured_value("COc1ccc(C(=O)Nc2ccc(Cl)c(Cl)c2)cc1N(C)C(=O)C(C)C")
75
>>> measured_value("COc1ccc(C(=O)N2CCc3ccccc3C2)cc1NC(=O)C(C)C")
87
>>> measured_value("COCCC(=O)Nc1cc(C(=O)Nc2ccc(Cl)c(Cl)c2)ccc1OC")
178
>>> measured_value("COc1ccc(C(=O)Nc2ccc(Cl)c(Cl)c2)cc1NC(=O)CN(C)C")
175
>>> measured_value("CCC(C)C(=O)Nc1cc(C(=O)Nc2ccc(Cl)c(Cl)c2)ccc1OC (stereo not shown)")
113
>>> measured_value("COc1ccc(C(=O)Nc2ccc(Cl)c(Cl)c2)cc1NC(=O)C1CCOCC1")
109
>>> measured_value("COCCOc1ccc(C(=O)Nc2ccc(Cl)c(Cl)c2)cc1NC(=O)C1CCC1")
152

// query I am curious: what Vif-A3G-Luc Activity (% of RLUs compared to DMSO treated control) value has been reported for CCCCOc1ccc(C(=O)Nc2ccc(Cl)c(Cl)c2)cc1NC(=O)C1CCC1 ?
// result 99

// query I am curious: what Vif-A3G-Luc Activity (% of RLUs compared to DMSO treated control) value has been reported for COc1ccc(C(=O)Nc2ccc(Cl)c(Cl)c2)cc1NC(=O)CC1CCCCC1 ?
// result 84
